# target-of-assay: T1, Recombinant Human TNF-α/TNFSF1A (human, UniProt P01375 77-233)
# T1 construct: Bought reagent (R&D Systems 210-TA); also called hTNF-α; huTNF-α
# T1 sequence (P01375 77-233 limits assumed): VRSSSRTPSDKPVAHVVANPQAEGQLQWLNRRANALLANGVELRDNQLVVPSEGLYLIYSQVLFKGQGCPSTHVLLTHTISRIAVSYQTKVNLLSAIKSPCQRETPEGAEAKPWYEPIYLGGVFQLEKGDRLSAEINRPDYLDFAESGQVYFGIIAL
# protocol: SPR (Biacore), antibody captured, TNF-α in solution
Catalogue of binders with associated kon
Report the value in M⁻¹ s⁻¹ with no unit label.

Here's what some known entries look like.
{"binder": "AB257 (antibody, V domains shown, also called hMAK195VH.2a / hMAK195VL.1a) VH: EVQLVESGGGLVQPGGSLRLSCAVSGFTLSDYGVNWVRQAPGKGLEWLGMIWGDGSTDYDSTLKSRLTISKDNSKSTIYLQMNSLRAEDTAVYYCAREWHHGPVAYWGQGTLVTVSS VL: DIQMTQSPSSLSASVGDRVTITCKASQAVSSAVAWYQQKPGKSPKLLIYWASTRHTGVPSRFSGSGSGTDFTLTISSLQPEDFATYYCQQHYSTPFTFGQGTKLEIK", "kon, M⁻¹ s⁻¹": "3.56e+06"}
{"binder": "AB243 (antibody, V domains shown, also called hMAK195VH.1 / hMAK195VL.2a) VH: EVQLQESGPGLVKPSETLSLTCTVSGGSISDYGVNWIRQPPGKGLEWIGMIWGDGSTDYDSTLKSRVTISVDTSKNQFSLKLSSVTAADTAVYYCAREWHHGPVAYWGQGTLVTVSS VL: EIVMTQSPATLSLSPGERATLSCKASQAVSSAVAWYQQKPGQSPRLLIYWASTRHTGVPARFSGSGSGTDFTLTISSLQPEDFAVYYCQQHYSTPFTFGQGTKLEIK", "kon, M⁻¹ s⁻¹": "1.72e+06"}

Please find the next binder below.
// query Which kon is listed for AB258 (antibody, V domains shown, also called hMAK195VH.2a / hMAK195VL.2) VH: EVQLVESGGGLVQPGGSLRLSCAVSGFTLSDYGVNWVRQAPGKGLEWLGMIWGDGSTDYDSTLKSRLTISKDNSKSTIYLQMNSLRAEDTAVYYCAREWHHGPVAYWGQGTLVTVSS VL: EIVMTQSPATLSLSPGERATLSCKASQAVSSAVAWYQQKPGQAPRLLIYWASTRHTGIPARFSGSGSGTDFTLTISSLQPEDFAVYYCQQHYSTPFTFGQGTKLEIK ?
// result 3.04e+06
